# Tm per record follows
test system: Nucleic Acid; assay: Thermal denaturation in alternating poly(dA-dT)poly(dA-dT) homopolymer (AT); type: nucleic-acid assay
Property Name: Tm (°C)

INSERT INTO results (entry_smiles, target_under_test, endpoint_value) VALUES
  ('CC(C)NC(=N)c1ccc2[nH]c(CCc3nc4cc(C(=N)NC(C)C)ccc4[nH]3)nc2c1', 'Nucleic Acid', 32.9),
  ('N=C(N)c1ccc2[nH]c(CCc3nc4cc(C(=N)N)ccc4[nH]3)nc2c1', 'Nucleic Acid', 37.2),
  ('N=C(N)c1ccc2[nH]c(Cc3nc4ccccc4[nH]3)nc2c1', 'Nucleic Acid', 1),
  ('N=C(N)c1ccc2[nH]c(CCCCCCCCc3nc4cc(C(=N)N)ccc4[nH]3)nc2c1', 'Nucleic Acid', 21.2),
  ('c1ccc2[nH]c(CCc3nc4ccccc4[nH]3)nc2c1', 'Nucleic Acid', 0.1),
  ('N=C(N)c1ccc2c(ccn2CCCCCCn2ccc3cc(C(=N)N)ccc32)c1', 'Nucleic Acid', 13.4),
  ('Nc1ccc2nc(CCc3nc4ccc(N)cc4[nH]3)[nH]c2c1', 'Nucleic Acid', 0.6),
  ('Cc1cc(-c2nc3cc(C(=N)N)ccc3[nH]2)c(C)cc1-c1nc2cc(C(=N)N)ccc2[nH]1', 'Nucleic Acid', 26.5),
  ('C1=NCCCN1Cc1ccc2[nH]c(CCc3nc4cc(CN5C=NCCC5)ccc4[nH]3)nc2c1', 'Nucleic Acid', 28.9),
  ('N=C(N)c1ccc2[nH]c(CCCCCCc3nc4cc(C(=N)N)ccc4[nH]3)nc2c1', 'Nucleic Acid', 28),
  ('OC/C=N\c1ccc2[nH]c(CCc3nc4cc(/N=C/CO)ccc4[nH]3)nc2c1', 'Nucleic Acid', 1.4);
